Experiment: gradient 5% acetonitrile 3 min, to 50% in 2 min, to 85% in 15 min, held 3 min, 100 µL/min
Settings: column: Zorbax Extend-C18 2.1 x 50 mm; eluents: water / acetonitrile, 0.1% formic acid
Criterion: RP-LC retention time strictly under 800 s. Met: 1 (yes). Not met: 0 (no).

Dear colleague, could you confirm whether RP-LC retention time of O=C(NC1CCN(Cc2ccccc2)CC1)C1CCCN(C(=O)N2CCOc3ccccc32)C1 (stereo not given) falls below 800 s? Thanks.
1 (yes)

Further, for COc1ccc(C2Cn3nnc(C(=O)N4CCC(C(=O)NC5CCCCC5)CC4)c3CO2)cc1 (stereo not given) ?
0 (no)

Further, for "COc1cccc2cc(C(=O)NCc3ccc(S(N)(=O)=O)cc3)oc12" ?
1 (yes)

Further, for CCc1cc(C2CCCN2C(=O)Nc2ccccc2Cl)on1 (stereo not given) ?
0 (no)

Further, for CCC(C)NC(=O)N1CCc2c(c(-c3nc(-c4ccc(F)cc4)no3)nn2C)C1 (stereo not given) ?
1 (yes)
